- measurement.target: HGFR (Homo sapiens)
- Construct: purchased Upstate 14-526
- Sequence (P08581 974-1390 limits assumed): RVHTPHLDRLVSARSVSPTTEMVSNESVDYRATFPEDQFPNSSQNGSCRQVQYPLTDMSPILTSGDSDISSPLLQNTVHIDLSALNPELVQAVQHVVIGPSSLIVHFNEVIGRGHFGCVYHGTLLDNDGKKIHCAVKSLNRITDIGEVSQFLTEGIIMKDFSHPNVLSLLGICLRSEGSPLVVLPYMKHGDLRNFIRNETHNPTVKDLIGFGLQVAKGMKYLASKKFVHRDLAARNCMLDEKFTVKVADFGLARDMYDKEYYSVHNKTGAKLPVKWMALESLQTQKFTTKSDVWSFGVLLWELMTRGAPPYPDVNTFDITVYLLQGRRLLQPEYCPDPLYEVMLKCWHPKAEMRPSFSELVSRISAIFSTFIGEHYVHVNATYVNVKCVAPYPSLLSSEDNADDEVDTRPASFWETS
- experimental.details: HGFR continuous-coupled spectrophotometric assay
- Type: biochemical
- experimental.conditions: at 1 pM; Table 6, library procedure 41; read-out: % Inhibition (percent c-MET inhibition)
property.name: inhibition at 1 pM (%)
A number alone suffices; assume %.

[
  {
    "compound": "COc1cc(CCNC(=O)c2cnc(N)c(OCc3c(Cl)cccc3Cl)c2)cc(OC)c1O",
    "inhibition at 1 pM [%]": 25
  }
]

The record that follows has no inhibition at 1 pM shown yet.
Exercise: Query (compound): "Nc1ncc(C(=O)NCc2noc(C(=O)N3CC[C@H](O)C3)n2)cc1OCc1c(Cl)cccc1Cl" ; field requested: inhibition at 1 pM
Solution: 26

Just for reference, patent US20050009840A1 is where these values come from.
